Kindly supply the reported MIC values for the records listed here.
- Tested on: Escherichia coli
- experimental-details: Antimicrobial activity against Arr-2 positive Escherichia coli CGSC 5163 lpxC101 mutant bearing pCTV104
- Assay type: functional
Give bare numbers, in µg/mL.

- record-smiles: "CO[C@H]1/C=C/O[C@@]2(C)Oc3c(C)c(O)c4c(O)c(c(/C=N/N5CCN(C)CC5)c(O)c4c3C2=O)NC(=O)/C(C)=C\\C=C\\[C@H](C)[C@H](O)[C@@H](C)[C@@H](O)[C@@H](C)[C@H](OC(C)=O)[C@@H]1C"
  MIC / µg/mL: 8
- record-smiles: "COc1ccccc1-c1cc(CNC(=O)O[C@H]2[C@H](C)[C@H](O)[C@H](C)[C@@H](O)[C@@H](C)/C=C/C=C(/C)C(=O)NC3=C(N4CCOCC4)C(=O)c4c(c(O)c(C)c5c4C(=O)[C@@](C)(O/C=C/[C@H](OC)[C@H]2C)O5)C3=O)on1"
  MIC / µg/mL: 2

Batch request: MIC per item, same order as input.
1. CNC(=O)O[C@H]1[C@H](C)[C@H](O)[C@H](C)[C@@H](O)[C@@H](C)/C=C/C=C(/C)C(=O)NC2=C(N3CCOCC3)C(=O)c3c(c(O)c(C)c4c3C(=O)[C@@](C)(O/C=C/[C@H](OC)[C@H]1C)O4)C2=O
2. CO[C@H]1/C=C/O[C@@]2(C)Oc3c(C)c(O)c4c(c3C2=O)C(=O)C(N2CCOCC2)=C(NC(=O)/C(C)=C\C=C\[C@H](C)[C@H](O)[C@@H](C)[C@@H](O)[C@@H](C)[C@H](OC(=O)N2CCC(NCc3ccccc3)CC2)[C@@H]1C)C4=O

OUTPUT:
[16, 0.24]

====

- System: Escherichia coli
- experimental-details: Ratio of MIC for Arr-2 positive Escherichia coli CGSC 5163 lpxC101 mutant bearing pCTV104 to MIC for Arr-2 negative Escherichia coli CGSC 5163 lpxC101 mutant bearing pCTV104P
- Type: functional
Kindly supply the reported Ratio values for the records listed here.
One number for each entry.

- record-smiles: "C=CCNC(=O)O[C@H]1[C@H](C)[C@H](O)[C@H](C)[C@@H](O)[C@@H](C)/C=C/C=C(/C)C(=O)NC2=C(N3CCOCC3)C(=O)c3c(c(O)c(C)c4c3C(=O)[C@@](C)(O/C=C/[C@H](OC)[C@H]1C)O4)C2=O"
  Ratio: 16

Could you now consider this next compound?
INPUT: What does the data say about its Ratio? Entry: COc1ccc(CNC(=O)O[C@H]2[C@H](C)[C@H](O)[C@H](C)[C@@H](O)[C@@H](C)/C=C/C=C(/C)C(=O)NC3=C(N4CCOCC4)C(=O)c4c(c(O)c(C)c5c4C(=O)[C@@](C)(O/C=C/[C@H](OC)[C@H]2C)O5)C3=O)cc1
OUTPUT: 1

====

Kindly supply the reported Ratio values for the records listed here.
- System: Escherichia coli
- experimental-details: Ratio of MIC for Arr-2 positive Escherichia coli CGSC 5163 lpxC101 mutant bearing pCTV104 to MIC for Arr-2 negative Escherichia coli CGSC 5163 lpxC101 mutant bearing pCTV104P
- Type: functional
One number for each entry.

- record-smiles: "CO[C@H]1/C=C/O[C@@]2(C)Oc3c(C)c(O)c4c(c3C2=O)C(=O)C(N2CCOCC2)=C(NC(=O)/C(C)=C\\C=C\\[C@H](C)[C@H](O)[C@@H](C)[C@@H](O)[C@@H](C)[C@H](OC(=O)NCc2ccc(C(F)(F)F)cc2)[C@@H]1C)C4=O"
  Ratio: 2

Batch request: Ratio per item, same order as input.
1. COc1ccccc1-c1cc(CNC(=O)O[C@H]2[C@H](C)[C@H](O)[C@H](C)[C@@H](O)[C@@H](C)/C=C/C=C(/C)C(=O)NC3=C(N4CCOCC4)C(=O)c4c(c(O)c(C)c5c4C(=O)[C@@](C)(O/C=C/[C@H](OC)[C@H]2C)O5)C3=O)on1
2. CO[C@H]1/C=C/O[C@@]2(C)Oc3c(C)c(O)c4c(O)c(c(/C=N/N5CCN(C)CC5)c(O)c4c3C2=O)NC(=O)/C(C)=C\C=C\[C@H](C)[C@H](O)[C@@H](C)[C@@H](O)[C@@H](C)[C@H](OC(C)=O)[C@@H]1C
3. CO[C@H]1/C=C/O[C@@]2(C)Oc3c(C)c(O)c4c(c3C2=O)C(=O)C(N2CCOCC2)=C(NC(=O)/C(C)=C\C=C\[C@H](C)[C@H](O)[C@@H](C)[C@@H](O)[C@@H](C)[C@H](OC(=O)NCc2cccc(Cl)c2)[C@@H]1C)C4=O

OUTPUT:
1: 2; 2: 32; 3: 2
